Origin of measurements: paper PMC4096598

Ends that are not written are not given here.
Attribute: maximum alpha-helical structure
Quantity: maximum alpha-helical structure (%)

INSERT INTO assay_data (construct_sequence, obs_value) VALUES
  ('FWGALAKGALKLIGPGSLFSSFSKKD [Pin2 [GPG]]', 60),
  ('FWGALAKGALKLIGSLFSSFSKKD [Pin2 [G]]', 60);

* * *

Ends that are not written are not given here.
Quantity: alpha-helical structure in absence of TFE (%)

INSERT INTO assay_data (construct_sequence, obs_value) VALUES
  ('FWGALAKGALKLIGSLFSSFSKKD [Pin2 [G]]', 20);
